In this section, each of the compounds is paired with its reported Fold Synergistic (1a-QE).
Tested on: genotype-1a variant with glutamine 30 changed to glutamate in the NS5A protein
Assay: HCV replicon cell-based assay, NS5A synergy with BMS-790052
Conditions: genotype 1a Q→E variant; test compound titrated in combination with NS5A-targeting compound (BMS-790052 fixed at 200 nM)
Text: The NS5A synergistic inhibitory effect of test compounds can be determined using various amounts of an NS5A-targeting compound with titration of a second compound of interest. […] In one embodiment, the HCV genotype strain can be genotype 1a containing a change at amino acid 30 of the NS5A protein consisting of glutamine to glutamate. The test compound can be chosen from compounds listed above or from others present in the literature.

C[C@H](CC(=O)NC1CCOCC1)c1ncc(-c2ccc(-c3ccc(-c4cnc([C@H](C)CC(=O)NC5CCOCC5)[nH]4)cc3)cc2)[nH]1 [MD-39]
>10 Fold

Incoming: Could you please provide reported Fold Synergistic (1a-QE) for CC(C)[C@H](CC(=O)N(C)C1CCOCC1)c1ncc(-c2ccc(-c3ccc(-c4cnc([C@@H](CC(=O)N(C)C5CCOCC5)C(C)C)[nH]4)cc3)cc2)[nH]1 [MD-50] ? Thanks!
Outgoing: <10 Fold

Incoming: Could you please provide reported Fold Synergistic (1a-QE) for CC(C)CNC(=O)[C@@H]1OCO[C@H]1c1ncc(-c2ccc(-c3ccc(-c4cnc([C@@H]5OCO[C@H]5C(=O)NCC(C)C)[nH]4)cc3)cc2)[nH]1 [MD-14] ? Thanks!
Outgoing: <10 Fold

Incoming: Could you please provide reported Fold Synergistic (1a-QE) for CC(C)(C)C(C(=O)Nc1cccc(Cl)c1)c1ncc(-c2ccc(-c3ccc(-c4cnc(C(C(=O)Nc5cccc(Cl)c5)C(C)(C)C)[nH]4)cc3)cc2)[nH]1 (stereo not shown) [Example B2] ? Thanks!
Outgoing: <10 Fold

Incoming: Could you please provide reported Fold Synergistic (1a-QE) for CC(C)[C@H](CC(=O)NCC(C)(C)CO)c1ncc(-c2ccc(-c3ccc(-c4cnc([C@@H](CC(=O)NCC(C)(C)CO)C(C)C)[nH]4)cc3)cc2)[nH]1 [MD-42] ? Thanks!
Outgoing: >10 Fold

Incoming: Could you please provide reported Fold Synergistic (1a-QE) for CC(C)[C@H](CC(=O)NCC1(c2ccc(F)cc2)CCCC1)c1ncc(-c2ccc(-c3ccc(-c4cnc([C@@H](CC(=O)NCC5(c6ccc(F)cc6)CCCC5)C(C)C)[nH]4)cc3)cc2)[nH]1 [MD-32] ? Thanks!
Outgoing: >100 Fold

Incoming: Could you please provide reported Fold Synergistic (1a-QE) for CCOC(=O)[C@@H]1OCO[C@H]1c1ncc(-c2ccc(-c3ccc(-c4cnc([C@@H]5OCO[C@H]5C(=O)OCC)[nH]4)cc3)cc2)[nH]1 [Example MD-15] ? Thanks!
Outgoing: <10 Fold

Incoming: Could you please provide reported Fold Synergistic (1a-QE) for CCO[C@H](CC(=O)NCC(C)C)C(=O)N[C@H](c1ncc(-c2ccc(-c3ccc(-c4cnc([C@@H](NC(=O)[C@@H](CC(=O)NCC(C)C)OCC)C(C)(C)C)[nH]4)cc3)cc2)[nH]1)C(C)(C)C [MD-34] ? Thanks!
Outgoing: >100 Fold

Incoming: Could you please provide reported Fold Synergistic (1a-QE) for CCOC(=O)N1CCN(C(=O)C[C@@H](CCC(F)(F)F)c2ncc(-c3ccc(-c4ccc(-c5cnc([C@H](CCC(F)(F)F)CC(=O)N6CCN(C(=O)OCC)CC6)[nH]5)cc4)cc3)[nH]2)CC1 [MD-58] ? Thanks!
Outgoing: >10 Fold

Incoming: Could you please provide reported Fold Synergistic (1a-QE) for O=C(C[C@@H](CCC(F)(F)F)c1ncc(-c2ccc(-c3ccc(-c4cnc([C@H](CCC(F)(F)F)CC(=O)N5CCC(F)CC5)[nH]4)cc3)cc2)[nH]1)N1CCC(F)CC1 [Example MD-2] ? Thanks!
Outgoing: >100 Fold

====

system: genotype-1a variant with glutamine 30 changed to glutamate in the NS5A protein; test: HCV replicon cell-based assay, NS5A synergy with BMS-790052; details: genotype 1a Q→E variant; test compound titrated in combination with NS5A-targeting compound (BMS-790052 fixed at 200 nM)
parameter: Fold Synergistic (1a-QE)

Sample records with Fold Synergistic (1a-QE):
C[C@H](CC(=O)N1CCC(F)(F)CC1)c1nc(-c2ccc(-c3ccc(-c4c[nH]c([C@H](C)CC(=O)N5CCC(F)(F)CC5)n4)cc3)cc2)c[nH]1
>100 Fold
CC(C)[C@H](CC(=O)N(Cc1ccccc1)C(C)C)c1ncc(-c2ccc(-c3ccc(-c4cnc([C@@H](CC(=O)N(Cc5ccccc5)C(C)C)C(C)C)[nH]4)cc3)cc2)[nH]1
>100 Fold

Kindly consider the entry below.
Incoming: Could you please provide reported Fold Synergistic (1a-QE) for CC(C)NC(=O)C[C@@H](CCC(F)(F)F)c1ncc(-c2ccc(-c3ccc(-c4cnc([C@H](CCC(F)(F)F)CC(=O)N(C(C)C)C5CC5)[nH]4)cc3)cc2)[nH]1 ? Thanks!
Outgoing: >10 Fold

====

In this section, each of the compounds is paired with its reported Fold Synergistic (1a-QE).
System: genotype-1a variant with glutamine 30 changed to glutamate in the NS5A protein
Assay: HCV replicon cell-based assay, NS5A synergy with BMS-790052
Conditions: genotype 1a Q→E variant; test compound titrated in combination with NS5A-targeting compound (BMS-790052 fixed at 200 nM)
From the text: The NS5A synergistic inhibitory effect of test compounds can be determined using various amounts of an NS5A-targeting compound with titration of a second compound of interest. […] In one embodiment, the HCV genotype strain can be genotype 1a containing a change at amino acid 30 of the NS5A protein consisting of glutamine to glutamate. The test compound can be chosen from compounds listed above or from others present in the literature.

CCO[C@H](CC(=O)N(NC(=O)OC)C(C)C)c1ncc(-c2ccc(-c3ccc(-c4cnc([C@@H](CC(=O)N(NC(=O)OC)C(C)C)OCC)[nH]4)cc3)cc2)[nH]1 [Example MD-5]
>10 Fold

Incoming: Could you please provide reported Fold Synergistic (1a-QE) for COC(=O)[C@@H](NC(=O)C[C@@H](CCC(F)(F)F)c1ncc(-c2ccc(-c3ccc(-c4cnc([C@H](CCC(F)(F)F)CC(=O)N[C@H](C(=O)OC)C(C)C)[nH]4)cc3)cc2)[nH]1)C(C)C [Example MD-1] ? Thanks!
Outgoing: >10 Fold

Incoming: Could you please provide reported Fold Synergistic (1a-QE) for CC(C)[C@H](CC(=O)NCC(C)(C)C)c1ncc(-c2ccc(-c3ccc(-c4cnc([C@@H](CC(=O)NCC(C)(C)C)C(C)C)[nH]4)cc3)cc2)[nH]1 [Example MD-18] ? Thanks!
Outgoing: >10 Fold

Incoming: Could you please provide reported Fold Synergistic (1a-QE) for CCO[C@H](CC(=O)NCC(C)C)c1nc(-c2ccc(-c3ccc(-c4c[nH]c([C@@H](CC(=O)NCC(C)C)OCC)n4)cc3)cc2)c[nH]1 [Example MD-6] ? Thanks!
Outgoing: >10 Fold

Incoming: Could you please provide reported Fold Synergistic (1a-QE) for CC(C)[C@H](CC(=O)NCc1ccccc1Cl)c1ncc(-c2ccc(-c3ccc(-c4cnc([C@@H](CC(=O)NCc5ccccc5Cl)C(C)C)[nH]4)cc3)cc2)[nH]1 [Example MD-19] ? Thanks!
Outgoing: >100 Fold

====

tested on: genotype-1a variant with glutamine 30 changed to glutamate in the NS5A protein; test: HCV replicon cell-based assay, NS5A synergy with BMS-790052; conditions: genotype 1a Q→E variant; test compound titrated in combination with NS5A-targeting compound (BMS-790052 fixed at 200 nM)
In this section, each of the compounds is paired with its reported Fold Synergistic (1a-QE).

CC(C)[C@H](CC(=O)N(C)CC(=O)N(C)C)c1ncc(-c2ccc(-c3ccc(-c4cnc([C@@H](CC(=O)N(C)CC(=O)N(C)C)C(C)C)[nH]4)cc3)cc2)[nH]1
<10 Fold
C[C@H](CC(=O)N1CCOCC1)c1ncc(-c2ccc(-c3ccc(-c4cnc([C@H](C)CC(=O)N5CCOCC5)[nH]4)cc3)cc2)[nH]1
>10 Fold
CCN(CC)C(=O)C(c1ncc(-c2ccc(-c3ccc(-c4cnc(C(C(=O)N(CC)CC)C(C)(C)C)[nH]4)cc3)cc2)[nH]1)C(C)(C)C (stereo not drawn)
>10 Fold
CC(C)(C)C(C(=O)NC1CCCCC1)c1ncc(-c2ccc(-c3ccc(-c4cnc(C(C(=O)NC5CCCCC5)C(C)(C)C)[nH]4)cc3)cc2)[nH]1 (stereo not drawn)
<10 Fold
CC(C)[C@H](CC(=O)NC1(C#N)CC1)c1ncc(-c2ccc(-c3ccc(-c4cnc([C@@H](CC(=O)NC5(C#N)CC5)C(C)C)[nH]4)cc3)cc2)[nH]1
<10 Fold

Incoming: Could you please provide reported Fold Synergistic (1a-QE) for CC(C)[C@H](CC(=O)N(C)CC(C)(C)C)c1ncc(-c2ccc(-c3ccc(-c4cnc([C@@H](CC(=O)N(C)CC(C)(C)C)C(C)C)[nH]4)cc3)cc2)[nH]1 ? Thanks!
Outgoing: >10 Fold
